# Species on record: Mus musculus
# test.protocol: Toxicity in mouse assessed as motor coordination after 45 mins by rotarod test; note: test concentration or dose not given here
# Assay type: organism-based
# conditions.used: in vivo, 0.75 h
observation.type: Activity

See these solved cases before continuing.
compound	result
CCC(=O)N[C@H]1CC[C@@H](NS(=O)(=O)c2ccc(F)cc2)CC1	Non-toxic
O=C1c2ccccc2C2CN(S(=O)(=O)c3ccc(F)cc3)CCN12 (stereo not drawn)	Non-toxic
CC(C)S(=O)(=O)Nc1ccc(NC(=O)c2ccccc2)cc1	Non-toxic
CCC(=O)N[C@H]1CC[C@H](NC(=O)c2ccccc2)CC1	Non-toxic
CC(=O)Nc1ccc(NS(=O)(=O)c2ccc(F)cc2)cc1	Non-toxic

Look up and state reported Activity for "CC(C)S(=O)(=O)Nc1ccc(NS(=O)(=O)c2ccc(F)cc2)cc1"
Non-toxic

Look up and state reported Activity for "O=C(N[C@H]1CC[C@H](NS(=O)(=O)c2ccc(F)cc2)CC1)c1ccccc1"
Non-toxic

Look up and state reported Activity for O=C1CCC2CN(S(=O)(=O)c3ccc(F)cc3)CCN12 (stereo not drawn) [UNIFIRAM]
Non-toxic

Look up and state reported Activity for CCC(=O)N1CCN2C(=O)c3ccccc3C2C1 (stereo not drawn)
Non-toxic

Look up and state reported Activity for "CCC(=O)N[C@H]1CC[C@@H](NC(=O)CC)CC1"
Non-toxic

Look up and state reported Activity for "CC(C)S(=O)(=O)N(C)c1ccc(NC(=O)c2ccccc2)cc1"
Non-toxic

Look up and state reported Activity for CC(=O)NC1CCN(S(=O)(=O)c2ccc(F)cc2)CC1 [SAPUNIFIRAM]
Non-toxic

Look up and state reported Activity for "CCC(=O)N[C@H]1CC[C@H](NS(=O)(=O)c2ccc(F)cc2)CC1"
Non-toxic

Where these numbers come from: ChEMBL document CHEMBL1151695
